Hello, the source for this data is patent US20220089784A1, in case you need it.

Target: BoNT/B2 (Clostridium botulinum)
Assay: yeast scFv FACS
Kindly state pKd for each of the entries shown.
Formally, pKd is defined as -log10 of the concentration c, with c in mol/L.

query: // lookup pKd for 19A9 scFv (scFv) scFv: EVQLQQPGSELARPGASVKLSCKASGYTFTSYPITWVKQTTGQGLEWIGEIYPRSGNTYYNEKFKGKATLTADKSSSTAYMELRSLTSEDSAVYFCARDYYDYAGGGRGYWGQGTTLTVSSVDLKSGGSTSGSGKPGSGEGSSGSARDIVLTQSPAIMSASPGGKITITCSASSSVSYMHWFQQKPGTSPKLWIYSTSNLASGVPARFSGSGSGTSYSLTISRMEAEDAATYYCQQRSSYPYTFGGGTKLEIK
result: 9.06

query: Ok, now 18A6 scFv (scFv) scFv: EVQLQQSGPELVKPGASVKISCKASGYTFTDNYINWVKQRPGQGLEWIGWIYPGSGNTKYNEKFKGKATLTVDTSSNTAYMQLTGLASDDSAVYFCARVNFYVSWDYWGQGTSVTVSSVDLKSGGSTSGSGKPGSGEGSSGSAREIVLTQSPAIMSASPGEKVTMTCSASSSISYMHWFQQKPGMSPKRRIFDTSKLASGVPARFSGSGSGTSYSLTISSMEAEDAGTYYCHQRSSYPFTFGGGTKLELK
result: 7.49

query: Ok, now 19D2 scFv (scFv) scFv: EVQLQQSGGELARPGSSVKLSCKASGYSFTGYSLTWVKQTPGQGLEWIGEIYPRSGNTYYNENFQGKATLTADESSSTAYMELRSLTSEDSAVYFCARDFYDYDGGGRGYWGQGTTLTVSSVDLKSGGSTSGSGKPGSGEGSSGSARDIVMTQTPAIMSASPGEKVTITCSASSSVSYMHWYQQKPGTSPKLWIYSTSNLASGVPARFSGSGSGTSYSLTISRMEAEDAATYYCQQRSSYPYTFGGGTKLEIK
result: 8.73
